System: L6 myotubes
Assay: Glucose uptake (2-deoxy-D-[3H]glucose) in L6 myotubes, effectiveness in muscular glucose utilization
Assay type: cell-based
Settings: Rattus norvegicus; L6 myotubes treated with compound 2 hours; 1 uM

{"compound": "CC#CC1c2c(ccc(OC)c2OC)C(C)=C2c3cc4c(cc3CCN21)OCO4 (centres unmarked) [Example 9]", "fold induction at 1 µM": 1.63}
{"compound": "C=C(C)C1c2c(ccc(OC)c2OC)C(C)=C2c3cc4c(cc3CCN21)OCO4 (centres unmarked) [Example 8]", "fold induction at 1 µM": 1.2}
{"compound": "CC#CC1c2c(ccc(OC)c2OC)C=C2c3cc4c(cc3CCN21)OCO4 (centres unmarked) [Example 7]", "fold induction at 1 µM": 1.58}
{"compound": "COc1ccc2c(c1OC)C1(CCCC1)N1CCc3cc4c(cc3C1C2)OCO4 (centres unmarked) [Example 2]", "fold induction at 1 µM": 1.11}
{"compound": "CC#CC1c2c(ccc(OC)c2OC)C(CC)=C2c3cc4c(cc3CCN21)OCO4 (centres unmarked) [Example 12]", "fold induction at 1 µM": 1.59}

* * *

Tested on: L6 myotubes
Experiment: Glucose uptake (2-deoxy-D-[3H]glucose) in L6 myotubes, effectiveness in muscular glucose utilization
Format: cell-based
Conditions: Rattus norvegicus; L6 myotubes treated with compound 2 hours; 1 uM
A collection of compounds and their measured fold induction at 1 µM

{"compound": "C=CCC1c2c(ccc(OC)c2OC)C(CC)=C2c3cc4c(cc3CCN21)OCO4 (stereo not shown) [Example 11]", "fold induction at 1 µM": 1.15}
{"compound": "COc1ccc2c(c1OC)C(C)(C)N1CCc3cc4c(cc3C1C2Cc1ccccc1)OCO4 (stereo not shown) [Example 25]", "fold induction at 1 µM": 1.13}
{"compound": "COc1ccc2c(c1OC)C(C)(C)N1CCc3cc4c(cc3C1=C2C)OCO4 [Example 14]", "fold induction at 1 µM": 1.21}
{"compound": "CCC1=C2c3cc4c(cc3CCN2C(C)(C)c2c1ccc(OC)c2OC)OCO4 [Example 16]", "fold induction at 1 µM": 1.25}
{"compound": "COc1ccc2c(c1OC)C1(CC=CC1)N1CCc3cc4c(cc3C1C2)OCO4 (stereo not shown) [Example 26]", "fold induction at 1 µM": 1.12}
{"compound": "CCC1(CC)c2c(ccc(OC)c2OC)C(C)C2c3cc4c(cc3CCN21)OCO4 (stereo not shown) [Example 23]", "fold induction at 1 µM": 1.1}
{"compound": "COc1ccc2c(c1OC)C(C)(C)N1CCc3cc4c(cc3C1C2C)OCO4 (stereo not shown) [Example 22]", "fold induction at 1 µM": 1.38}
{"compound": "COc1ccc2c(c1OC)C(c1ccccc1)N1CCc3cc4c(cc3C1=C2)OCO4 (stereo not shown) [Example 1]", "fold induction at 1 µM": 1.32}
{"compound": "COc1ccc2c(c1OC)C(C)(C)N1CCc3cc4c(cc3C1=C2)OCO4 [Example 27]", "fold induction at 1 µM": 1.62}
{"compound": "COc1ccc2c(c1OC)C(C)(C)N1CCc3cc4c(cc3C1C2)OCO4 (stereo not shown) [Example 21]", "fold induction at 1 µM": 1.22}
{"compound": "CCC1(CC)c2c(ccc(OC)c2OC)C(C)=C2c3cc4c(cc3CCN21)OCO4 [Example 15]", "fold induction at 1 µM": 1.22}
{"compound": "C=C(C)C1c2c(ccc(OC)c2OC)C=C2c3cc4c(cc3CCN21)OCO4 (stereo not shown) [Example 4]", "fold induction at 1 µM": 1.86}
{"compound": "COc1cc(Cl)c2c(c1OC)C(C)(C)N1CCc3cc4c(cc3C1=C2)OCO4 [Example 19]", "fold induction at 1 µM": 1.25}

Values were extracted from patent US8258149B2.
